- target.or.system: AR H874Y (Homo sapiens, UniProt P10275, H875Y)
- Sequence (P10275 1-920 H875Y): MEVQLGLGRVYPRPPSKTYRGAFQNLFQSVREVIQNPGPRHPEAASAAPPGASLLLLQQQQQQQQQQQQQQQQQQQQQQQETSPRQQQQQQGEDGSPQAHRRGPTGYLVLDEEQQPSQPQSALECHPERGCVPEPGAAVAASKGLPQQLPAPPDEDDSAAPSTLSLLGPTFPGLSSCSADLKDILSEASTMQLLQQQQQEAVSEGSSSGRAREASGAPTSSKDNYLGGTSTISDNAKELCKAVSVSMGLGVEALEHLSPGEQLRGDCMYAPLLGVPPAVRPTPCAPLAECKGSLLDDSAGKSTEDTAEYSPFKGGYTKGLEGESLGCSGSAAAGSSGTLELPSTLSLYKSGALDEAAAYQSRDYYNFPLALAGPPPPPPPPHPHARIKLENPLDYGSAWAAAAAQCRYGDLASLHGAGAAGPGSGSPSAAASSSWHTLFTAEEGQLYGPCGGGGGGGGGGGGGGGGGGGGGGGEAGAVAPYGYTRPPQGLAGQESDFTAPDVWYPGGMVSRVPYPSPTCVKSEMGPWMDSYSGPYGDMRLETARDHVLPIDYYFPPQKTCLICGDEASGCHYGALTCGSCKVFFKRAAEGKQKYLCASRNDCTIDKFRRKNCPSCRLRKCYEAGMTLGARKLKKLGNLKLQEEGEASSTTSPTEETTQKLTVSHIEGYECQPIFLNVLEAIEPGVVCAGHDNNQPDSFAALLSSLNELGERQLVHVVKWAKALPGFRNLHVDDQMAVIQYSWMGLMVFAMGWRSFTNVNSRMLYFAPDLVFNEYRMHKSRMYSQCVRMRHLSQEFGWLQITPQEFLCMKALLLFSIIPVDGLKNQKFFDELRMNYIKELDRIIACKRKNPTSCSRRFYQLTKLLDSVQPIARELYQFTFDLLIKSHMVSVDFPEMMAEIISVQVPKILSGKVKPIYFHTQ
- experiment.notes: cell-based
- particulars: IC50 (antagonistic activity), R1881 0.1 nM
parameter: pIC50
Give bare numbers, as −log10 of the molar value.

Task item: Entry CC(C)(O)COc1ccc(CN2C(=S)N(c3ccc(C#N)c(C(F)(F)F)c3)C(=O)C2(C)C)cn1 [BAY 1024767] : reported pIC50 = ?
Reply: 7.51

----------
- target.or.system: AR E709Y (Homo sapiens, UniProt P10275, E710Y)
- experiment.notes: cell-based
- particulars: IC50 (antagonistic activity), R1881 1 nM
parameter: IC50 (nM)
Answers are plain numbers, in nM.

Task item: IC50 lookup needed for CC(C)(O)COc1ccc(CN2C(=S)N(c3ccc(C#N)c(C(F)(F)F)c3)C(=O)C2(C)C)cn1 [BAY 1024767] , thanks.
Reply: 130

----------
- target.or.system: AR M895V (Homo sapiens, UniProt P10275, M895V/M896V)
- experiment.notes: cell-based
- particulars: IC50 (antagonistic activity), R1881 0.1 nM
parameter: IC50
Value and unit, in that order.

Task item: Recorded IC50 for CC(C)(O)COc1ccc(CN2C(=S)N(c3ccc(C#N)c(C(F)(F)F)c3)C(=O)C2(C)C)cn1 [BAY 1024767] , please?
Reply: 11 nM

----------
- target.or.system: AR M895V (Homo sapiens, UniProt P10275, M895V/M896V)
- Sequence (P10275 1-920 M895V/M896V): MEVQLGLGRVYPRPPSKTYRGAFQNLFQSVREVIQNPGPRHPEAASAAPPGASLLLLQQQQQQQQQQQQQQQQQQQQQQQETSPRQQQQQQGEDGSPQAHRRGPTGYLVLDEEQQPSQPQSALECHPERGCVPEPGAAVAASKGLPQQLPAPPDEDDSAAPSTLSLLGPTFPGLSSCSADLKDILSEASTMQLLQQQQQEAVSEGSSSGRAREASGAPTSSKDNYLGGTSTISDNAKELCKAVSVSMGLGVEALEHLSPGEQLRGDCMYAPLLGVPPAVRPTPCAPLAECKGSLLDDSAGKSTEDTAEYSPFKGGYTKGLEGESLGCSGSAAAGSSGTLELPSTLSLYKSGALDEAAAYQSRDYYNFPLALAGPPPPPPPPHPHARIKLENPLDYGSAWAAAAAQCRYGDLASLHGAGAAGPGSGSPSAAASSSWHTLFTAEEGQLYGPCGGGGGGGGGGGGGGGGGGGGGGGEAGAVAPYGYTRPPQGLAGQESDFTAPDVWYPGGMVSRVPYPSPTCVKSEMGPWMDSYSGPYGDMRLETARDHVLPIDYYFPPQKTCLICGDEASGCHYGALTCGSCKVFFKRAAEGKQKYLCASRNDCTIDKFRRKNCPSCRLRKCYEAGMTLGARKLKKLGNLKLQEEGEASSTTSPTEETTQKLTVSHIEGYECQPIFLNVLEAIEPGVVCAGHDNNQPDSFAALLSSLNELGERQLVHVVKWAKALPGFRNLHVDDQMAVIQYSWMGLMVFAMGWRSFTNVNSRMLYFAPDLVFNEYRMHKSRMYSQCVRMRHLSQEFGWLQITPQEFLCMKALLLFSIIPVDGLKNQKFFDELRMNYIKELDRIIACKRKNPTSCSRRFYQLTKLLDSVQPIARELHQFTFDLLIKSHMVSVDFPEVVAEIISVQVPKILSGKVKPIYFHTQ
- experiment.notes: cell-based
- particulars: IC50 (antagonistic activity), R1881 1 nM
parameter: IC50 (µM)
One number for each entry, in µM.

Task item: Reported IC50 for CC(C)(O)COc1ccc(CN2C(=S)N(c3ccc(C#N)c(C(F)(F)F)c3)C(=O)C2(C)C)cn1 [BAY 1024767] : what is it?
Reply: 0.031

----------
- target.or.system: AR W741C (Homo sapiens, UniProt P10275, W742C)
- Sequence (P10275 1-920 W742C): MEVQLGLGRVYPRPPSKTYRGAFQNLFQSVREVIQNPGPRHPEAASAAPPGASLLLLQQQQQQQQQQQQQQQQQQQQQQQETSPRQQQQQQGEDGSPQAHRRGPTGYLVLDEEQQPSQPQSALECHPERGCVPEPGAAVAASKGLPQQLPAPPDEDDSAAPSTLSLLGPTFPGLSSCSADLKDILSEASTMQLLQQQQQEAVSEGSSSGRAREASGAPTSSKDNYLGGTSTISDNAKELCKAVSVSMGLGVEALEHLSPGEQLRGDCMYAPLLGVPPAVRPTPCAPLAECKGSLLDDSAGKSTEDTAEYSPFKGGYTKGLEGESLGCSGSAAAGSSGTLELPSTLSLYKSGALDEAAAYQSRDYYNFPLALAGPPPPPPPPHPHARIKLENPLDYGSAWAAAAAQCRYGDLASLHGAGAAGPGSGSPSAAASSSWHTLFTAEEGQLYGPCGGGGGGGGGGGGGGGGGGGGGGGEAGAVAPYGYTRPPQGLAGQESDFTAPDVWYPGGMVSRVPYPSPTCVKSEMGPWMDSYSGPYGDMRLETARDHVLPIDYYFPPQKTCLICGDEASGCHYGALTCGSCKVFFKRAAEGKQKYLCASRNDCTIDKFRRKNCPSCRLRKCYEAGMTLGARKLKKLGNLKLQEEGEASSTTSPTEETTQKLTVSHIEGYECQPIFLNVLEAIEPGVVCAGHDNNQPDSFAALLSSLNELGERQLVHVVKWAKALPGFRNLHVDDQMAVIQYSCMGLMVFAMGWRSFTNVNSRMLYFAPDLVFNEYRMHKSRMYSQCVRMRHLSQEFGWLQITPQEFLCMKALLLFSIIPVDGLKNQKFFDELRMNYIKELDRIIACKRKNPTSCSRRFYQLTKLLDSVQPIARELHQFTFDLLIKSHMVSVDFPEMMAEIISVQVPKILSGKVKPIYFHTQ
- experiment.notes: cell-based
- particulars: IC50 (antagonistic activity), R1881 10 nM
parameter: IC50 (nM)
One number for each entry, in nM.

Task item: Given the entry CC(C)(O)COc1ccc(CN2C(=S)N(c3ccc(C#N)c(C(F)(F)F)c3)C(=O)C2(C)C)cn1 [BAY 1024767] , report its measured IC50.
Reply: 890

----------
- experiment.notes: Caco-2 permeation assay
- Format: in vitro ADME
- particulars: human
parameter: efflux ratio at 2 h, 2 μM

Task item: Which efflux ratio at 2 h, 2 μM is reported for this molecule? CC(C)(O)COc1ccc(CN2C(=S)N(c3ccc(C#N)c(C(F)(F)F)c3)C(=O)C2(C)C)cn1 [BAY 1024767]
Reply: 0.61

----------
- target.or.system: AR wild-type (Homo sapiens, UniProt P10275)
- experiment.notes: cell-based
- particulars: IC50 (antagonistic activity), R1881 0.1 nM
parameter: pIC50
One number for each entry, as −log10 of the molar value.

Task item: May I ask what pIC50 has been recorded for `CC(C)(O)COc1ccc(CN2C(=S)N(c3ccc(C#N)c(C(F)(F)F)c3)C(=O)C2(C)C)cn1` ?
Reply: 7.34
